- tested-target: T1, human CD30 (commercial, conjugated to digoxigenin) (human, UniProt P28908 19-379, limits assumed, conjugated to digoxigenin (DIG))
- T1 sequence (looked up): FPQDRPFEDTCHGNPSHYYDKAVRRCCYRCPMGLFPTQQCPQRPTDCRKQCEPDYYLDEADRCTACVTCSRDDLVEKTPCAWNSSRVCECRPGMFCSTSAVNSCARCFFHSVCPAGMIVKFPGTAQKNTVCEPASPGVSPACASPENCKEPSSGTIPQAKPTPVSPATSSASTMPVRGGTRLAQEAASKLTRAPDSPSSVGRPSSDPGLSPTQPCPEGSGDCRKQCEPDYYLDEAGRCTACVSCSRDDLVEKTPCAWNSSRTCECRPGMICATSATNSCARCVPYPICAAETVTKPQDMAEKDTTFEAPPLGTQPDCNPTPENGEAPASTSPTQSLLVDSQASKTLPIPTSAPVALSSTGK
- assay-name: AlphaScreen competition vs biotin-WT AC10
Using IC50 as the sorting value, the categories are bucket A = under 8 nM, bucket B = from 8 nM up to 30 nM, bucket C = 30 nM and over

[[record]]
binder = "AC10 H3/L1 full length antibody (antibody, V domains shown) VH: QIQLVQSGPEVKKPGASVKVSCKASGYTFTDYYITWVRQAPGQGLEWMGWIYPGSGNTKYNEKFQGRFVFSVDTSASTAYLQISSLKAEDTAVYFCANYGNYWFAYWGQGTLVTVSS VL: DIVLTQSPATLSLSPGERATLSCRASQSVDFDGDSYMNWYQQKPGQPPKVLIYAASNLESGIPARFSGSGSGTDFTLTISSLQPEDFATYYCQQSNEDPWTFGGGTKVEIK"
assigned_class = "bucket A"

[[record]]
binder = "AC10 H1/L1 full length antibody (antibody, V domains shown) VH: QIQLVQSGPEVKKPGASVKVSCKASGYTFTDYYITWVRQAPGQGLEWMGWIYPGSGNTKYNEKFQGRVTITVDTSASTAYMELSSLRSEDTAVYFCANYGNYWFAYWGQGTLVTVSS VL: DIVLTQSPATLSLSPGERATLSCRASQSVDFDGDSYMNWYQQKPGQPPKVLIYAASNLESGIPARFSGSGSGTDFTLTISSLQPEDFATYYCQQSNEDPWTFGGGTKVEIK"
assigned_class = "bucket B"

[[record]]
binder = "AC10 H3/L3 full length antibody (antibody, V domains shown) VH: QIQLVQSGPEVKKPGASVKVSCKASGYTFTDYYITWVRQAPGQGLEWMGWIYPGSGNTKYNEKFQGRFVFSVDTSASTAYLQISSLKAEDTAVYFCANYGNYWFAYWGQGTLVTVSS VL: DIVLTQSPDSLAVSLGERATINCKASQSVDFDGDSYMNWYQQKPGQPPKVLIYAASNLESGIPARFSGSGSGTDFTLTINSLEAEDAATYYCQQSNEDPWTFGGGTKVEIK"
assigned_class = "bucket A"

[[record]]
binder = "AC10 H2/L0 full length antibody (antibody, V domains shown) VH: QIQLVESGGGLVKPGGSLRLSCAASGYTFTDYYITWVRQAPGQGLEWMGWIYPGSGNTKYNEKFQGRVTMTVDTSTSTAYMELSSLRSEDTAVYFCANYGNYWFAYWGQGTLVTVSS VL: DIVLTQSPASLAVSLGQRATISCKASQSVDFDGDSYMNWYQQKPGQPPKVLIYAASNLESGIPARFSGSGSGTDFTLNIHPVEEEDAATYYCQQSNEDPWTFGGGTKLEIK"
assigned_class = "bucket B"

[[record]]
binder = "AC10 H1/L2 full length antibody (antibody, V domains shown) VH: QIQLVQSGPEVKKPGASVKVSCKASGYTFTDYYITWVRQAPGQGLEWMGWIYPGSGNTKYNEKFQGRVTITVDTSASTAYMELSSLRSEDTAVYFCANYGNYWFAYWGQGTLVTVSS VL: DIVLTQSPSSLSASVGDRVTITCRASQSVDFDGDSYMNWYQQKPGQPPKVLIYAASNLESGIPARFSGSGSGTDFTLTISSLQPEDFATYYCQQSNEDPWTFGGGTKVEIK"
assigned_class = "bucket C"

[[record]]
binder = "AC10 H2/L2 full length antibody (antibody, V domains shown) VH: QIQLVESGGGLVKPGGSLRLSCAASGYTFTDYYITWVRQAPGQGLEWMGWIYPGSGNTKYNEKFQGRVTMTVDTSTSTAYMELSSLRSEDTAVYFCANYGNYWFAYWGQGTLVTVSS VL: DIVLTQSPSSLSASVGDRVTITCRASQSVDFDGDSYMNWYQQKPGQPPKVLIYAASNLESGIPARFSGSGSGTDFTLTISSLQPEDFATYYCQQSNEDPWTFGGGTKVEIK"
assigned_class = "bucket C"

[[record]]
binder = "AC10 H3/L0 full length antibody (antibody, V domains shown) VH: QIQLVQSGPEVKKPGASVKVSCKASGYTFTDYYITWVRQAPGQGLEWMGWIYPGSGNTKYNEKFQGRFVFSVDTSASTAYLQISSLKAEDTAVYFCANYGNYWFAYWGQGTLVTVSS VL: DIVLTQSPASLAVSLGQRATISCKASQSVDFDGDSYMNWYQQKPGQPPKVLIYAASNLESGIPARFSGSGSGTDFTLNIHPVEEEDAATYYCQQSNEDPWTFGGGTKLEIK"
assigned_class = "bucket A"

[[record]]
binder = "AC10 H1/L0 full length antibody (antibody, V domains shown) VH: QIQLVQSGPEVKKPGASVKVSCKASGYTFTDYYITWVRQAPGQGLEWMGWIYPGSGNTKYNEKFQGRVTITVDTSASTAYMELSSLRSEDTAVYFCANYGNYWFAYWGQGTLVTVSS VL: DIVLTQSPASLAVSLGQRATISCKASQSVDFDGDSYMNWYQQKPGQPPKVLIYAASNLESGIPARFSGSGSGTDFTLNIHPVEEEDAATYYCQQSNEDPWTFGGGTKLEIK"
assigned_class = "bucket B"

[[record]]
binder = "AC10 H2/L1 full length antibody (antibody, V domains shown) VH: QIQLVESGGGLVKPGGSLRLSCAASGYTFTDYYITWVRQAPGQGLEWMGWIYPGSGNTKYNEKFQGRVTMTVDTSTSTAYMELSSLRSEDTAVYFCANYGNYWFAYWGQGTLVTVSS VL: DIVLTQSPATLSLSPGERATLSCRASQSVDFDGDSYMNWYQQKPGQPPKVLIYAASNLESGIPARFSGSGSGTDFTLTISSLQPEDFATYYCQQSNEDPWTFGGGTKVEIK"
assigned_class = "bucket C"

